# key: entry, value: shrunken log2 fold change
- Tested on: Escherichia coli TOP10;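 also: peptides expressed intracellularly from a pBAD plasmid library in pooled LB shake-flask culture, induced with 0.3% L-arabinose, DNA abundance read by NGS, three biological replicates, DESeq2 with apeglm shrinkage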
- Assay name: shrunken log2 fold change of peptide-encoding DNA abundance (4.5 h post-induction vs induction); higher = less antimicrobial activity (less host growth inhibition)
- Condition details: time post-induction: 4.5 h; library: site-saturation at positions 5, 18, 19, 20

Examples with their reported shrunken log2 fold change follow.
RRIRWRPPRLPRPRPRPDGPPRP = 0.199
RRIRMRPPRLPRPRPRPGTYPRP = -0.163
RRIRVRPPRLPRPRPRPQPGPRP = 0.255
RRIRERPPRLPRPRPRPMMEPRP = -0.0582
RRIRHRPPRLPRPRPRPPCEPRP = 0.00703
RRIRDRPPRLPRPRPRPMLVPRP = 0.116
RRIRKRPPRLPRPRPRPVPIPRP = 0.177
RRIRDRPPRLPRPRPRPNYFPRP = -0.0536
RRIRHRPPRLPRPRPRPRRVPRP = 0.36
RRIRNRPPRLPRPRPRPMFNPRP = -0.868

# shrunken log2 fold change (sequence: "RRIRNRPPRLPRPRPRPGQFPRP" ) is -0.0134

Sure, the documented shrunken log2 fold change for "RRIRQRPPRLPRPRPRPFHFPRP" is -0.0115

// shrunken log2 fold change lookup, sequence = "RRIRNRPPRLPRPRPRPREYPRP" , result: 0.0336

For "RRIRMRPPRLPRPRPRPTSDPRP" the sequence record lists shrunken log2 fold change as 0.055

shrunken log2 fold change reported for this sequence "RRIRYRPPRLPRPRPRPHPLPRP" : -0.719

response.value for "RRIRLRPPRLPRPRPRPHTEPRP" (field: shrunken log2 fold change) = -0.167

The reported value for "RRIRGRPPRLPRPRPRPPLRPRP" in terms of shrunken log2 fold change is 0.796
